- TARGET: human Fpn (Homo sapiens)
- Construct: FLAG (C); made in house; host or cells: Pichia pastoris
- Sequence (Q9NP59 whole entry): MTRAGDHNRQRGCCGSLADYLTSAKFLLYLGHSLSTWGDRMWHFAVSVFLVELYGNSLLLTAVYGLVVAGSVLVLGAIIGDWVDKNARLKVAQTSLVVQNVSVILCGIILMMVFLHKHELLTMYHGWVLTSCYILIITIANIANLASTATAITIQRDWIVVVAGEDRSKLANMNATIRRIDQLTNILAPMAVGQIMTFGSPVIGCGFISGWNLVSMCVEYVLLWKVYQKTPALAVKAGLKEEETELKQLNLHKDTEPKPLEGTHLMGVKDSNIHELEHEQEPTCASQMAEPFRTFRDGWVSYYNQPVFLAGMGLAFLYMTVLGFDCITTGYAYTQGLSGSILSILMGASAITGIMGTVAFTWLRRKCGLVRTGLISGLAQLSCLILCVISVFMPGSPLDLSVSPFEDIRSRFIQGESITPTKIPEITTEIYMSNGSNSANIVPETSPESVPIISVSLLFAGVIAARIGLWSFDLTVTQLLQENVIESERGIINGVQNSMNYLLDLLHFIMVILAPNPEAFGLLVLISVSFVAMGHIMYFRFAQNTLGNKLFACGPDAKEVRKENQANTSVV
- TEST SUMMARY: Biophysical Ferroportin-Hepcidin Binding Assay (fluorescence polarization)
- EXPERIMENTAL PARAMETERS: average of multiple measurements; 1 μM human Fpn, 20 nM TMR-hepcidin; read-out: FP IC50
- Procedure: This biophysical assay was developed to confirm inhibition of hepcidin binding to ferroportin (Fpn) more directly. Incubation of TMR-hepcidin with purified human Fpn isolated from Pichia pastoris yeast cells expressing human Fpn with a C-terminal FLAG affinity tag (Bonaccorsi di Patti, 2014) leads to increased fluorescence polarization (FP) of the TMR-hepcidin ligand. […]
pIC50: −log10 of the molar value.

MOLECULE	pIC50
O=C(NCc1ncccc1Cl)c1cnn(CCNCc2nc3ccccc3[nH]2)c1 [Example 138]	6.80
Cn1nccc1CNC(=O)c1csc(CCNCc2nc3ccccc3[nH]2)n1 [Example 88]	5.17
O=C(NCc1ncc[nH]1)c1csc(CCNCc2nc3ccccc3[nH]2)n1 [Example 95]	4.88
Cc1cnccc1CNC(=O)c1csc(CCNCc2nc3ccccc3[nH]2)n1 [Example 90]	6.38
O=C(NCc1ncccc1F)c1ncn(CCNCc2nc3ccccc3[nH]2)n1 [Example 169]	6.27
O=C(NCc1ccc(F)cn1)c1csc(CCNCc2nc3ccccc3[nH]2)n1 [Example 43]	5.82
O=C(NCc1ccccc1)c1csc(CCNCc2cn3ccccc3n2)n1 [Example 34]	5.37
COc1ccc2[nH]c(CNCCc3nc(C(=O)NCc4ccccc4)cs3)nc2c1 [Example 50]	5.83
O=C(NCc1ncccc1Cl)c1csc(CCNCc2nc3ccccc3[nH]2)n1 [Example 82]	6.43
O=C(NCc1ncccc1F)c1ccnc(CCNCc2nc3ccccc3[nH]2)c1 [compound 222]	6.09
O=C(NCc1ncccc1F)c1coc(CCNCCc2nc3cc(F)ccc3[nH]2)n1 [Example 250]	7.72
O=C(NCc1cccc(N2CCCC2)c1)c1csc(CCNCc2nc3ccccc3[nH]2)n1 [Example 21]	5.84
O=C(NCc1ncccn1)c1csc(CCNCc2nc3ccccc3[nH]2)n1 [Example 61]	5.77
Cc1ccc(CNC(=O)c2csc(CCNCc3nc4ccccc4[nH]3)n2)nn1 [Example 93]	5.99
O=C(NCc1nc2ccccc2[nH]1)c1csc(CCNCc2nc3ccccc3[nH]2)n1 [Example 60]	6.01
CC(C)N(C(=O)c1csc(CCNCc2nc3ccccc3[nH]2)n1)C1CCCCC1 [Example 25]	5.41
O=C(NCc1ncccc1F)c1cccc(CCN(CCc2nc3ccccc3[nH]2)CCc2nc3ccccc3[nH]2)n1 [Example 147]	6.25
NC(=O)c1ccc(CNC(=O)c2csc(CCNCc3nc4ccccc4[nH]3)n2)cn1 [Example 54]	4.94
O=C(NCc1ncccc1F)c1csc(CCN(CCc2nc3ccccc3[nH]2)CCc2nc3ccccc3[nH]2)n1 [Example 152]	7.64
O=C(NCc1ncccc1F)c1cncc(C2CN(CCc3nc4c(F)cccc4[nH]3)C2)c1 [compound 248]	6.51
O=C(NCc1ccccc1)c1csc(CCNCc2nc3cc(O)ccc3[nH]2)n1 [Example 30]	5.63
CC(C)(CNCCc1nc2ccccc2[nH]1)c1nc(C(=O)NCc2ncccc2F)cs1 [Example 242]	4.56
O=C(NCc1ccccc1)c1csc(CCNCc2ccc(F)cn2)n1 [Example 6]	4.31
O=C(NCc1ncccc1F)c1coc(CCNCCc2nc3c(F)cccc3[nH]2)n1 [Example 228]	7.68
O=C(NCc1ncccc1F)c1cnn(CCNCCc2nc3ccccc3[nH]2)c1 [Example 111]	7.29
O=C(c1csc(CCNCc2nc3ccccc3[nH]2)n1)N1CCc2ncccc2C1 [Example 107]	5.24
CN(C)c1ccccc1CNC(=O)c1csc(CCNCc2nc3ccccc3[nH]2)n1 [Example 70]	5.97
O=C(NCc1ncccc1F)c1cccc(CNCCc2nc3ccccc3[nH]2)c1 [Example 224]	6.70

====

Recorded pIC50 by entry
- TARGET: ferroportin (Fpn) (Mus musculus)
- Construct: host or cells: J774 mouse macrophage cell line, Fe(III)-NTA induced
- Sequence (Q9JHI9 whole entry): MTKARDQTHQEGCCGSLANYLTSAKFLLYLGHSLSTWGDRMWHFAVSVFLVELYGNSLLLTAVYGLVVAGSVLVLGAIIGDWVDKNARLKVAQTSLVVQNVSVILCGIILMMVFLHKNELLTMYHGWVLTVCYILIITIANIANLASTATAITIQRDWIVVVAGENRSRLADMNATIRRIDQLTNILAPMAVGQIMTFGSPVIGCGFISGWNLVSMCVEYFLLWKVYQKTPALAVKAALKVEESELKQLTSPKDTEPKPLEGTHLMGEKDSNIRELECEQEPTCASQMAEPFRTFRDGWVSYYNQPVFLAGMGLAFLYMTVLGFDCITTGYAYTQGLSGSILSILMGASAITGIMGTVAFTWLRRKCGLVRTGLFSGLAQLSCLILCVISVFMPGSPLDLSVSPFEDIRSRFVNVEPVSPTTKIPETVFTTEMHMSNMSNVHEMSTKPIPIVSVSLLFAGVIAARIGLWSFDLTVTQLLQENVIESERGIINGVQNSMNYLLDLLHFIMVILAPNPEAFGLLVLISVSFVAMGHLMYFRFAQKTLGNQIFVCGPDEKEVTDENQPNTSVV
- TEST SUMMARY: Hepcidin Internalization Assay (J774)
- Assay type: cell-based
- EXPERIMENTAL PARAMETERS: average of multiple measurements; inhibition of TMR-hepcidin (25 nM) internalization into J774 cells; read-out: J774 IC50
pIC50: −log10 of the molar value.
MEASUREMENT TYPE: pIC50

COMPOUND	QUANTITATIVE READOUT
O=C(NCc1cccs1)c1csc(CCNCc2nc3ccccc3[nH]2)n1 [Example 16]	6.05
CC1(c2nc(C(=O)NCc3ncccc3F)cs2)CN(CCc2nc3ccccc3[nH]2)C1 [Example 212]	5.07
O=C(NCc1ccncn1)c1csc(CCNCc2nc3ccccc3[nH]2)n1 [Example 44]	5.88
O=C(NCc1ccc(F)cn1)c1csc(CCNCc2nc3ccccc3[nH]2)n1 [Example 43]	6.60
O=C(NCc1ccccc1F)c1csc(CCNCc2nc3ccccc3[nH]2)n1 [Example 65]	6.07
Cn1cncc1CNC(=O)c1csc(CCNCc2nc3ccccc3[nH]2)n1 [Example 84]	6.40
O=C(NCc1ncccc1F)c1cccc(CCN(CCc2nc3ccccc3[nH]2)CCc2nc3ccccc3[nH]2)n1 [Example 147]	6.27
O=C(Cn1cc(C(=O)NCc2ncccc2F)cn1)NCCc1nc2ccccc2[nH]1 [Example 117]	5.01

====

- TARGET: human Fpn-GFP fusion (Homo sapiens)
- Construct: expressed in transfected cells; host or cells: HEK-293 cell line #354 (derivative of HEK-293 Tet-ON Advanced, Clontech)
- TEST SUMMARY: Inhibition of ferroportin mediated iron export activity in an iron response assay (BLAzer)
- Format: cell-based
- EXPERIMENTAL PARAMETERS: average of multiple measurements; HEK-293 cell line #354; read-out: BLAzer EC50
Each record's class is read off its EC50 using these ranges: A: < 2000 nM; B: ≥ 2000 nM and < 10000 nM; C: ≥ 10000 nM

COMPOUND	TARGET	LABEL
Cc1cnc(CNC(=O)c2csc(CCNCc3nc4ccccc4[nH]3)n2)c(C)c1	human Fpn-GFP fusion (Homo sapiens)	B
O=C(NCc1ccccc1)c1csc(CCNCc2cc3ccccc3[nH]2)n1	human Fpn-GFP fusion (Homo sapiens)	C
O=C(NCc1ncccc1F)c1cncc(CCNCc2nc3ccccc3[nH]2)c1	human Fpn-GFP fusion (Homo sapiens)	C
O=C(NC1CCc2cccnc21)c1csc(CCNCCc2nc3ccccc3[nH]2)n1 (stereo not drawn)	human Fpn-GFP fusion (Homo sapiens)	A
Cn1ccc(CNC(=O)c2csc(CCNCc3nc4ccccc4[nH]3)n2)n1	human Fpn-GFP fusion (Homo sapiens)	C
O=C(NCc1ncccc1F)c1coc(CCNCCc2nc3cc(F)ccc3[nH]2)n1	human Fpn-GFP fusion (Homo sapiens)	A
O=C(NCc1ncccc1F)c1coc(C2CN(CCc3nc4ccccc4[nH]3)C2)n1	human Fpn-GFP fusion (Homo sapiens)	A
O=C(NCc1ncccc1F)c1cncc(CCNCCc2nc3ccccc3[nH]2)c1	human Fpn-GFP fusion (Homo sapiens)	B
O=C(NCc1ncccn1)c1csc(CCNCc2nc3ccccc3[nH]2)n1	human Fpn-GFP fusion (Homo sapiens)	C
O=C(NCc1ncccc1F)c1csc(CCN(CCc2nc3ccccc3[nH]2)CCc2nc3ccccc3[nH]2)n1	human Fpn-GFP fusion (Homo sapiens)	A
O=C(NCc1ncc(F)cc1F)c1csc(CCNCCc2nc3ccccc3[nH]2)n1	human Fpn-GFP fusion (Homo sapiens)	B
O=C(CCNCCc1nc2ccccc2[nH]1)NCC(=O)NCc1ncccc1F	human Fpn-GFP fusion (Homo sapiens)	C
Cn1ccnc1CNC(=O)c1csc(CCNCc2nc3ccccc3[nH]2)n1	human Fpn-GFP fusion (Homo sapiens)	B
O=C(NCc1ncccc1Cl)c1coc(CCNCc2nc3ccccc3[nH]2)n1	human Fpn-GFP fusion (Homo sapiens)	A
Cn1ccnc1CNCCc1nc(C(=O)NCc2ccccc2)cs1	human Fpn-GFP fusion (Homo sapiens)	A
O=C(NCc1ncccc1Cl)c1cnn(CCNCCc2nc3ccccc3[nH]2)c1	human Fpn-GFP fusion (Homo sapiens)	A
Cc1ccc(CNC(=O)c2csc(CCNCc3nc4ccccc4[nH]3)n2)nn1	human Fpn-GFP fusion (Homo sapiens)	C
O=C(NCc1ncccc1F)N1CCCC(CCNCCc2nc3ccccc3[nH]2)C1 (stereo not drawn)	human Fpn-GFP fusion (Homo sapiens)	C
O=C(NCc1cnccn1)c1csc(CCNCc2nc3ccccc3[nH]2)n1	human Fpn-GFP fusion (Homo sapiens)	C
O=C(NCc1ccccc1)c1csc(CCNCc2nc3cc(Cl)ccc3[nH]2)n1	human Fpn-GFP fusion (Homo sapiens)	B
N#Cc1ccccc1CNC(=O)c1csc(CCNCc2nc3ccccc3[nH]2)n1	human Fpn-GFP fusion (Homo sapiens)	A
O=C(NCc1ncccc1F)c1coc(CCNCCc2nc3c(F)cc(F)cc3[nH]2)n1	human Fpn-GFP fusion (Homo sapiens)	A
O=C(NCc1ncccc1F)c1cc(CCNCc2nc3ccccc3[nH]2)ccn1	human Fpn-GFP fusion (Homo sapiens)	C
O=C(NCc1ncccc1F)c1coc(CCNCCc2nc3c(F)cccc3[nH]2)n1	human Fpn-GFP fusion (Homo sapiens)	B

Data credit: patent US10738041B2
